# target_of_assay: Beta-2 adrenergic receptor (Rattus norvegicus, UniProt P10608)
# Sequence (P10608 whole entry): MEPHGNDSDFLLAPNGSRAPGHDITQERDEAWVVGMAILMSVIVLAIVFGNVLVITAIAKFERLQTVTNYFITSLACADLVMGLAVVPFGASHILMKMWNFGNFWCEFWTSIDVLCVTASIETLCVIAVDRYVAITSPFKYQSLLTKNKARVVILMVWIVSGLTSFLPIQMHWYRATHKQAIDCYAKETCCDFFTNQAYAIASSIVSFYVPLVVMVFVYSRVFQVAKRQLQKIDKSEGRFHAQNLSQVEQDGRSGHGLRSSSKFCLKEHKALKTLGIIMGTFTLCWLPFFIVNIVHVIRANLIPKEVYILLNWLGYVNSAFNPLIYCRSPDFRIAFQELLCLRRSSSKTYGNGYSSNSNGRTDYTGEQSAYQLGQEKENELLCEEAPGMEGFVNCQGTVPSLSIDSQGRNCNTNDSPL
# experimental_protocol: Antagonist activity at beta2 adrenergic receptor in isolated rat stomach fundus
# test_conditions: read-out: pA2 (converted)
measurement_name: log10(Kb) (log10 of the value in µM)
Values below are the log10 of the recorded Kb, with µM as the unit.

These recorded examples may help you get a feel for the data.
C/C=C/c1ccc(OCC(O)CNC(C)C)c(OC)c1 (racemic): 0.10
CCc1ccc(OCC(O)CNC(C)C)cc1 (racemic): -1.50
CC(C)NCC(O)COc1ccc2c(c1)CCCNC2=O (racemic): 1.91
CC(C)NCC(O)COc1ccc(C(N)=O)cc1 (racemic): 1.20
C/C=C\c1ccc(OCC(O)CNC(C)C)c(OC)c1 (racemic): -1.70
CC(C)NCC(O)COc1ccc2c(c1)OCCNC2=O (racemic): 1.66
CNC(=O)c1ccc(OCC(O)CNC(C)C)cc1 (racemic): 3.00

Please give the measured log10(Kb) for this molecule: CCCc1ccc(OCC(O)CNC(C)C)cc1.Cl (racemic)
-0.80

###

# target_of_assay: Beta-1 adrenergic receptor (Rattus norvegicus)
# experimental_protocol: Antagonist activity at beta1 adrenergic receptor in isolated rat atria
# test_conditions: read-out: pA2 (converted)
Item-by-item account of Kb
The response must be a number in µM with no trailing unit.

Solved entries (count: 2):
CC(C)NCC(O)COc1ccc2c(c1)CCCNC2=O (racemic): 135
CC(C)NCC(O)COc1ccc(C(N)=O)cc1 (racemic): 10

Please examine the following record next.
Which Kb is reported for this compound? C/C=C\c1ccc(OCC(O)CNC(C)C)c(OC)c1 (racemic)
0.2

###

# target_of_assay: Beta-1 adrenergic receptor (Rattus norvegicus, UniProt P18090)
# Sequence (P18090 whole entry): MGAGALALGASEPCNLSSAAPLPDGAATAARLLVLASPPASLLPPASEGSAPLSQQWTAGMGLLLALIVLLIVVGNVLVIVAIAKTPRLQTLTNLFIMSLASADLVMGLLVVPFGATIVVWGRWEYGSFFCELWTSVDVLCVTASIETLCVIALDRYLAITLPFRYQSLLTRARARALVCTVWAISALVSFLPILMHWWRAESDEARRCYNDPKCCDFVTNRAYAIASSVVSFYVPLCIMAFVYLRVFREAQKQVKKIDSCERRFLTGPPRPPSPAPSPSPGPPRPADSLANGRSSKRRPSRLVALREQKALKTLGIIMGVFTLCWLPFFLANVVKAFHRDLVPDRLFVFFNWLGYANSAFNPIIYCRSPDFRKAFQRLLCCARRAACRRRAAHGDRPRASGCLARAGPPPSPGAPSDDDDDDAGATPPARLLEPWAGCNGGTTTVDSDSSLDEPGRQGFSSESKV
# experimental_protocol: Antagonist activity at beta1 adrenergic receptor in isolated rat atria
# test_conditions: read-out: pA2 (converted)
Listed next: entries and their corresponding Kb.
Dear colleague, please return just the value in µM, with no unit written.

Some entries whose results are on file:
C/C=C/c1ccc(OCC(O)CNC(C)C)c(OC)c1 (racemic): 0.0501
CCc1ccc(OCC(O)CNC(C)C)cc1 (racemic): 0.0631
CC(C)NCC(O)COc1ccc2c(c1)OCCNC2=O (racemic): 18.2
CCCc1ccc(OCC(O)CNC(C)C)cc1.Cl (racemic): 0.0251
CNC(=O)c1ccc(OCC(O)CNC(C)C)cc1 (racemic): 3.63

Entry CC(=O)Nc1ccc(OCC(O)CNC(C)C)cc1 (stereo unspecified) has what Kb?
0.339
